// values below are reported Population Hoechst High Intensity Objects (%)
Test system: HEK-293T
run-description: Multiplex assay against HEK293T
Assay type: toxicity, cell-based
applied-conditions: human, 24 h, 1 µM, compound concentration 1 uM
reported-metric: Population Hoechst High Intensity Objects (%)

{"compound": "CN(C)CCCc1cc(C(=O)Nc2ccc(-c3ccncc3)cc2)ccc1O.Cl.Cl", "value-unit": "%", "value-observed": 5}
{"compound": "CC/C(=C(\\c1ccc(O)cc1)c1ccc(OCCN(C)C)cc1)c1ccccc1 [AFIMOXIFENE]", "value-unit": "%", "value-observed": 0}
{"compound": "COc1cc2ncnc(Nc3ccc(Oc4ccccc4)cc3C)c2cc1OC.Cl", "value-unit": "%", "value-observed": 0}
{"compound": "c1ccc2nc(N3CCNCC3)ccc2c1 [QUIPAZINE]", "value-unit": "%", "value-observed": 0}
{"compound": "CC(C)c1ccc(/C=N/NC(=O)c2ccc(O)cc2)cc1", "value-unit": "%", "value-observed": 0}
{"compound": "O=C1NCc2ccc3c(-c4cccc(Cl)c4)c[nH]c3c21", "value-unit": "%", "value-observed": 0}
{"compound": "CC[C@H](Nc1ncnc2[nH]cnc12)c1nc2cccc(F)c2c(=O)n1-c1ccccc1 [IDELALISIB]", "value-unit": "%", "value-observed": 0}
{"compound": "O=C(O)c1cc2ccccc2c(Cc2c(O)c(C(=O)O)cc3ccccc23)c1O [PAMOIC ACID]", "value-unit": "%", "value-observed": 6}
{"compound": "C=C(C)[C@H]1CN[C@H](C(=O)O)[C@H]1CC(=O)O [KAINIC ACID]", "value-unit": "%", "value-observed": 0}
{"compound": "O=S(=O)(c1ccccc1)c1cnc2c(N3CCNCC3)cccc2c1 [INTEPIRDINE]", "value-unit": "%", "value-observed": 5}
